Test: Parental Cell Counter Screen Assay for Epigenetic Modulators
Conditions: parental c127i cells, compound fluorescence imaging, 30 h
The source made the active and inactive calls.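 How the source made its calls: active means compound that made reporter-free parental cells show up as glowing objects under laser imaging, so likely a fluorescent false positive; inactive means the rest.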
Possible outcomes: active, inactive

[[record]]
compound = "CCCCC1CC1C(=O)Nc1ccc(OC)c(OC)c1 (stereo not drawn)"
classification = "inactive"

[[record]]
compound = "CCN(CC)c1ccc2cc(-c3nc4ccccc4[nH]3)c(=O)oc2c1"
classification = "active"

[[record]]
compound = "CCN1CSC(=S)N(CC)C1"
classification = "inactive"

[[record]]
compound = "CC(C)C(=O)NC(/C=C/c1ccccc1)c1cc([N+](=O)[O-])c2cccnc2c1O (stereo not drawn)"
classification = "inactive"

[[record]]
compound = "Oc1c(C(Nc2ccccn2)c2ccccn2)ccc2cccnc12 (stereo not drawn)"
classification = "inactive"

[[record]]
compound = "CC(C)C(=O)NC(c1ccco1)c1cc([N+](=O)[O-])c2cccnc2c1O (stereo not drawn)"
classification = "inactive"

[[record]]
compound = "CC(C)C(=O)NC(c1ccc(Cl)cc1Cl)c1ccc2cccnc2c1O (stereo not drawn)"
classification = "inactive"

[[record]]
compound = "COc1ccc(NC(c2ccccn2)c2ccc3cccnc3c2O)cc1 (stereo not drawn)"
classification = "inactive"

[[record]]
compound = "O=C(CSc1cccc2cccnc12)N1CCCC1"
classification = "inactive"

[[record]]
compound = "c1cnn(-c2nc(N3CCOCC3)nc(N3CCOCC3)n2)c1"
classification = "inactive"

[[record]]
compound = "Cc1ccc(N=Nc2ccc(O)c3ncccc23)cc1C"
classification = "inactive"

[[record]]
compound = "COc1ccc(C)cc1N=Nc1ccc(O)c2ncccc12"
classification = "inactive"

[[record]]
compound = "O=C(Cc1ccccc1)NC(c1ccco1)c1ccc2cccnc2c1O (stereo not drawn)"
classification = "inactive"

[[record]]
compound = "Oc1c(C(Nc2ccccc2C(F)(F)F)c2ccccn2)ccc2cccnc12 (stereo not drawn)"
classification = "inactive"

[[record]]
compound = "O=C(CC(c1ccco1)S(=O)(=O)c1ccccc1)c1ccc(F)cc1 (stereo not drawn)"
classification = "inactive"

[[record]]
compound = "COc1ccc(C(=O)NC(c2ccco2)c2cc(Cl)c3cccnc3c2O)cc1 (stereo not drawn)"
classification = "inactive"

[[record]]
compound = "CC(/C=C/C(=O)NO)=C\\[C@@H](C)C(=O)c1ccc(N(C)C)cc1"
classification = "inactive"

[[record]]
compound = "O=C(CSc1cccc2cccnc12)Nc1ccccc1"
classification = "inactive"

[[record]]
compound = "Oc1c(C(Nc2ccccn2)c2ccco2)cc(Cl)c2cccnc12 (stereo not drawn)"
classification = "inactive"

[[record]]
compound = "Cc1cc(C)n(-c2nc(NC(C)C)nc(NC(C)(C)C)n2)n1"
classification = "inactive"

[[record]]
compound = "CC(C)C(=O)NC(c1cccs1)c1cc(Cl)c2cccnc2c1O (stereo not drawn)"
classification = "inactive"

[[record]]
compound = "O=C(CSc1cccc2cccnc12)NCc1ccccc1"
classification = "inactive"

[[record]]
compound = "Cc1cc(C)n(-c2nc(N(C)C)nc(N(C)C)n2)n1"
classification = "inactive"

